Each recorded value in this set is attributed to patent US20250353873A1.

Test system: human APOE RNA
Assay: Dose-dependent inhibition of human APOE RNA in HepG2 cells, electroporation, 50,000 cells per well, RT-PCR normalized to GAPDH (Example 4, Tables 8-10)
Format: cell-based
Settings: HepG2 cells, electroporation, 24-hour treatment, 1,280 nM, Table 8
Protocol: Modified oligonucleotides selected from the examples above were tested at various doses in HepG2 cells. The modified oligonucleotides were tested in a series of experiments that had the same culture conditions. Each experiment is identified in separate tables below. HepG2 cells plated at a density of 50,000 cells per well were treated by electroporation with various concentrations of modified oligonucleotide as specified in the tables below. […]
Strand notation (5' to 3'): a small letter for the sugar, then the base; units joined by * are phosphorothioate-linked, units joined directly phosphodiester-linked; [ ] holds rarer units or linkages, { } end groups; capitals alone tell only the bases. [ms] = mesyl phosphoramidate linkage; e = 2'-O-(2-methoxyethyl) (MOE); k = constrained ethyl (cEt); [5mC] = 5-methylcytosine; d = 2'-deoxy (DNA)
Quick list: APOE RNA (% UTC) 1,280 nM per entry.
result_type: APOE RNA (% UTC) 1,280 nM

* Aes^mCeoTeoTesGesGksTdsGdzAdzAdzTds^mCdsTdsTdsTdsAdzTksTksAesAe (eA*e[5mC]eTeT*eG*kG*dT*dG[ms]dA[ms]dA[ms]dT*d[5mC]*dT*dT*dT*dA[ms]kT*kT*eA*eA) [Compound No. 1757576] | 24
* 1778154: modified oligonucleotide complementary to human APOE RNA (e[5mC]*eT*eTeGeGeT*dG[ms]dA[ms]dA*dT*d[5mC]*dT*dT*dT*dA*dT*kTkAeA*eA; antisense) [compound 1778154] | 47
* 1785598: modified oligonucleotide complementary to human APOE RNA (k[5mC]*kT*kT*dG[ms]dG[ms]dT[ms]dG[ms]dA[ms]dA[ms]dT*d[5mC]*dT*dT*dT*dA*dT[ms]kT*kA*dA[ms]kA; antisense) [compound 1785598] | 33
* 1778130: modified oligonucleotide complementary to human APOE RNA (eA*e[5mC]eTeTeG*kG*dT*dG[ms]dA[ms]dA*dT*d[5mC]*dT*dT*dT*dA[ms]kTkT*eA*eA; antisense) [compound 1778130] | 26
